B1: Pistol ribozyme (parent)
chain: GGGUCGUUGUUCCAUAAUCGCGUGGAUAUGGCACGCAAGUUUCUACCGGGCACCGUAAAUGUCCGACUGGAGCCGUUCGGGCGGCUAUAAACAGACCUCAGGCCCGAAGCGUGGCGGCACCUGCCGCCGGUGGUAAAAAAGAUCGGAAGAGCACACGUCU

Variants of: B1
Test Description: aptazyme ON/OFF ratio, guanine; higher = stronger switching; co-transcriptional cleavage with and without guanine
Recorded aptazyme ON/OFF ratio values for a group of variants are listed next.
Provide a numeric answer; units are not to be included.

Item U7G U8C G9A U10C U11G C12U C13U has what recorded aptazyme ON/OFF ratio? 1.18

Bench note: what aptazyme ON/OFF ratio did U7G U8C G9U U11C C13A show? 1.38

Suppose we examine the variant U8G G9C U10C U11G C12U C13A ; what aptazyme ON/OFF ratio value has been reported? 1.04

Would you mind telling me what aptazyme ON/OFF ratio value was observed for U7G U8C G9A U10G U11G C12A ? 1.3

Need aptazyme ON/OFF ratio of U7A U8C U11C , thanks. 1.2

GET /values?readout=aptazyme ON/OFF ratio&item= U8C U10A C12G 1.21

aptazyme ON/OFF ratio lookup needed for U7A U8A G9A C12G C13G , thanks. 1.12

Item U8C G9C U11A C13G has what recorded aptazyme ON/OFF ratio? 1.12

Please report the recorded aptazyme ON/OFF ratio for U8A G9C U10G U11A C12U . 1.06

Would you mind telling me what aptazyme ON/OFF ratio value was observed for U8C G9U U10A U11G C12U C13A ? 1.12

Can you share its aptazyme ON/OFF ratio? I mean this variant: U7C U8A G9A U10C U11A C12G C13G 1.17
